Value source: patent US20120107330A1

Recorded kon by entry
Target: T1, human TNFR1 (recombinant, R&D Systems cat no. 636-R1/CF, biotinylated) (human, UniProt P19438 30-211, limits assumed, biotinylated with EZ-Link NHS-LC-LC-biotin)
T1 construct: it is not tied to the BIAcore reagent; also called p55; hTNFR1
T1 sequence (looked up): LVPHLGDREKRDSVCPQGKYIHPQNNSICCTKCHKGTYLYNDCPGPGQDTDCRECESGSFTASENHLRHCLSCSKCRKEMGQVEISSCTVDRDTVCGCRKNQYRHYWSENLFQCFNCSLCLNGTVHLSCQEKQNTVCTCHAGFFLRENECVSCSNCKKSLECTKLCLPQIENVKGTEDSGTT
Experiment: BIAcore T100, biotinylated human TNFR1 on chip
Give the quantity in M⁻¹ s⁻¹, number only.

kon for DMS0118 (bispecific antibody, anti-TNFR1 dAb / AlbudAb in-line fusion) EVQLLESGGGLVQPGGSLRLSCAASGFTFVKYSMGWVRQAPGKGLEWVSQISNTADRTYYAHSVKGRFTISRDNSKNTLYLQMNSLRAEDTAVYYCAIYTGRWVPFEYWGQGTLVTVSSASTSGPSDIQMTQSPSSLSASVGDRVTITCRASQWIGSQLSWYQQKPGKAPKLLIMWRSSLQSGVPSRFSGSGSGTDFTLTISSLQPEDFATYYCAQGLMKPMTFGQGTKVEIKR ?
640000

DMS0112 (bispecific antibody, anti-TNFR1 dAb / AlbudAb in-line fusion) EVQLLESGGGLVQPGGSLRLSCAASGFTFVKYSMGWVRQAPGKGLEWVSQISNTADRTYYAHSVKGRFTISRDNSKNTLYLQMNSLRAEDTAVYYCAIYTGRWVPFEYWGQGTLVTVSSASTDIQMTQSPSSLSASVGDRVTITCRASRPIGTMLSWYQQKPGKAPKLLILFGSRLQSGVPSRFSGSGSGTDFTLTISSLQPEDFATYYCAQAGTHPTTFGQGTKVEIKR , same question.
400000

// next record DMS0116 (bispecific antibody, anti-TNFR1 dAb / AlbudAb in-line fusion) EVQLLESGGGLVQPGGSLRLSCAASGFTFVKYSMGWVRQAPGKGLEWVSQISNTADRTYYAHSVKGRFTISRDNSKNTLYLQMNSLRAEDTAVYYCAIYTGRWVPFEYWGQGTLVTVSSASTSGPSDIQMTQSPSSLSASVGDRVTITCRASRPIGTMLSWYQQKPGKAPKLLILFGSRLQSGVPSRFSGSGSGTDFTLTISSLQPEDFATYYCAQAGTHPTTFGQGTKVEIKR
370000
